- assayOverview: Cytotoxicity assay on macrophages (resazurin)
- Format: cell-based, BALB/c mice
- testConditions: mouse, J774 macrophages, macrophages J774, 24 h exposure, Table 2; values marked e correspond to 100 μg/mL, the higher dose tested
Below, each entry is listed alongside its reported CC50 at 24 h.
Field: numeric (µM). Do not append units.

Solved entries (count: 2):
1. COc1cc(C(=O)c2cccn2-c2ncccc2C)cc(OC)c1OC [5bk] : 284
2. Cc1cccnc1-n1cccc1C(=O)c1ccc(Cl)cc1 [5be] : 149

Input line: Quick one: CC50 at 24 h for Cc1cccnc1-n1cccc1C(=O)c1ccc(Br)cc1 [5bf] ?
Output line: 120

Input line: What do you get for Cc1cccnc1-n1cccc1C(=O)c1ccc(F)cc1 [5bd] ?
Output line: 137

Input line: Same read-out for O=C(c1ccc(C(F)(F)F)cc1)c1cccn1-c1ncccn1 [5ai] ?
Output line: 150

----------
- System: L. amazonensis (MHOM/Br/79/Maria) promastigotes
- assayOverview: In vitro promastigote susceptibility assay (resazurin)
- Format: cell-based
- testConditions: Leishmania amazonensis; L. amazonensis promastigotes, 48 h at 26 °C, triplicate; N/A = not active at 100 μg/mL
Please note: IC50 exactly at 200 µM is -1. Only values below 200 µM get 1.

Before answering, review these 3 worked examples.
1) Cc1cccnc1-n1cccc1C(=O)c1ccccc1 : 1
2) COc1ccc(C(=O)c2cccn2-c2ncccc2C)cc1 : -1
3) O=C(c1ccc(Cl)cc1)c1cccn1-c1ncccn1 : 1

Input line: Input O=C(c1ccccc1)c1cccn1-c1ncccn1 ; condition: IC50 strictly below 200 µM. Does it hold?
Output line: -1

Input line: Now the same for Cc1cccnc1-n1cccc1C(=O)c1ccn(C(C)(C)C)c1
Output line: -1

Input line: Now consider COc1cc(OC)cc(C(=O)c2cccn2-c2ncccc2C)c1 .
Output line: 1

----------
- Test system: L. amazonensis (MHOM/Br/79/Maria) promastigotes
- assayOverview: In vitro promastigote susceptibility assay (resazurin)
- Assay type: cell-based
- testConditions: Leishmania amazonensis; L. amazonensis promastigotes, 48 h at 26 °C, triplicate; N/A = not active at 100 μg/mL
# thresholds on IC50 define classes: low = under 40 µM, medium = from 40 µM up to 200 µM, high = 200 µM and over

These recorded examples may help you get a feel for the data.
1. Cc1cccnc1-n1cccc1C(=O)c1ccc(Br)cc1 [5bf] : low
2. Cc1cccnc1-n1cccc1C(=O)c1ccn(C)c1 [5br] : high
3. O=C(c1cc(C(F)(F)F)cc(C(F)(F)F)c1)c1cccn1-c1ncccn1 [5am] : medium
4. Cc1cccnc1-n1cccc1C(=O)c1ccc(Cl)cc1 [5be] : medium
5. Cc1ccc(C(=O)c2cccn2-c2ncccc2C)cc1 [5bb] : medium

Input line: Each molecule maps to one class by IC50. Which class for Cc1cccnc1-n1cccc1C(=O)c1ccc(C#N)cc1 [5bg] ?
Output line: medium

Input line: Repeat for the following molecule: O=C(c1ccc2ccccc2c1)c1cccn1-c1ncccn1 [5an]
Output line: low

Input line: Also check CCCCCCCCCCCCCCCCOP(=O)([O-])OCC[N+](C)(C)C [miltefosine, reference compound]
Output line: low

Input line: Query Cc1cccnc1-n1cccc1C(=O)c1cccc(OCc2ccccc2)c1 [5bp] next
Output line: high

----------
- assayOverview: Cytotoxicity assay on macrophages (resazurin)
- Type: cell-based, BALB/c mice
- testConditions: mouse, J774 macrophages, macrophages J774, 24 h exposure, Table 2; values marked e correspond to 100 μg/mL, the higher dose tested
Each entry below carries its recorded CC50 at 24 h.

Previously resolved entries follow.
1) Cc1cccnc1-n1cccc1C(=O)c1ccn(C)c1 : > 377 µM
2) CC(C)(C)c1ccc(C(=O)c2cccn2-c2ncccn2)cc1 : 91 µM
3) CCCCCCCCCCCCCCCCOP(=O)([O-])OCC[N+](C)(C)C [miltefosine, reference compound] : 55.4 µM
4) O=C(c1ccccc1)c1cccn1-c1ncccn1 : > 401 µM
5) COc1cc(OC)cc(C(=O)c2cccn2-c2ncccc2C)c1 : 108 µM

Input line: Quick one: CC50 at 24 h for O=C(c1ccc(Cl)cc1)c1cccn1-c1ncccn1 ?
Output line: > 352 µM

----------
molecules and their reported CC50 at 24 h
- assayOverview: Cytotoxicity assay on macrophages (resazurin)
- Assay type: cell-based, BALB/c mice
- testConditions: mouse, J774 macrophages, macrophages J774, 24 h exposure, Table 2; values marked e correspond to 100 μg/mL, the higher dose tested

1. Cc1cccnc1-n1cccc1C(=O)c1ccoc1 [5bs] : > 396 µM

Input line: For the molecule Cc1ccc(C(=O)c2cccn2-c2ncccn2)cc1 [5ab] , what CC50 at 24 h is on record?
Output line: > 381 µM

Input line: Then this molecule: O=C(c1ccc([N+](=O)[O-])cc1)c1cccn1-c1ncccn1 [5ah]
Output line: > 340 µM

Input line: Let us now turn to O=C(c1cc(C(F)(F)F)cc(C(F)(F)F)c1)c1cccn1-c1ncccn1 [5am]
Output line: > 260 µM

Input line: Try this molecule next: Cc1cccnc1-n1cccc1C(=O)c1cccc(OCc2ccccc2)c1 [5bp]
Output line: > 357 µM

Input line: Now consider COc1ccc(C(=O)c2cccn2-c2ncccc2C)cc1 [5bo] and answer again.
Output line: > 342 µM

Input line: Okay, and Cc1cccnc1-n1cccc1C(=O)c1ccccc1 [5ba] ?
Output line: > 381 µM

----------
- assayOverview: Cytotoxicity assay on macrophages (resazurin)
- Assay type: cell-based, BALB/c mice
- testConditions: mouse, J774 macrophages, macrophages J774, 24 h exposure, Table 2; values marked e correspond to 100 μg/mL, the higher dose tested
readoutLabel: CC50 at 24 h

Example compounds with recorded CC50 at 24 h:
1. O=C(c1ccc(Br)cc1)c1cccn1-c1ncccn1 : > 305 µM
2. N#Cc1ccc(C(=O)c2cccn2-c2ncccn2)cc1 : > 365 µM
3. Cc1ccc(C(=O)c2cccn2-c2ncccc2C)cc1 : > 362 µM
4. Cc1cccnc1-n1cccc1C(=O)c1ccn(C(C)(C)C)c1 : > 325 µM
5. Cc1cccnc1-n1cccc1C(=O)c1ccc(C(C)(C)C)cc1 : > 314 µM

Now for the compound whose CC50 at 24 h we want.
Input line: May I ask what CC50 at 24 h has been recorded for Cc1cccnc1-n1cccc1C(=O)c1ccc(C#N)cc1 ?
Output line: > 348 µM
